src = paper PMC3951875

procedure.text: Exposure
Format: in vivo
run.parameters: in vivo, iv, 0.03 mg
Hi there, I'd appreciate the recorded AUC for every entry that follows.
Express the result in ng·h/mL but write the number alone.

What does the record list as AUC for "NCC(=O)Nc1cccc(-c2nn3c(=O)cc(N4CCNCC4)nc3s2)c1" ?
123

May I ask what AUC has been recorded for "NCC(=O)Nc1cncc(-c2nn3c(=O)cc(N4CCNCC4)nc3s2)c1" ?
137

====

procedure.text: Exposure
Type: in vivo
run.parameters: in vivo, ip, 0.03 mg
measured.endpoint: AUC (ng·h/mL)
The reply should be a number in ng·h/mL, with the unit left off.

Reported AUC for "NCC(=O)Nc1cncc(-c2nn3c(=O)cc(N4CCNCC4)nc3s2)c1" : what is it?
87

Recorded AUC of "NCC(=O)Nc1cccc(-c2nn3c(=O)cc(N4CCNCC4)nc3s2)c1" , please.
45

====

procedure.text: Long-term solubilization
Type: physicochemical
measured.endpoint: solubility

Could you tell me which solubility is on file for NCC(=O)Nc1cncc(-c2nn3c(=O)cc(N4CCNCC4)nc3s2)c1 [compound 13] ?
≥ 60 mg/mL

====

Hi there, I'd appreciate the recorded Tmax for every entry that follows.
procedure.text: Exposure
Assay type: in vivo
run.parameters: in vivo, ip, 0.03 mg
Return type: number; implicit unit min.

Can you share its Tmax? I mean this compound: "NCC(=O)Nc1cccc(-c2nn3c(=O)cc(N4CCNCC4)nc3s2)c1"
4.8

What value of Tmax has been reported for the following compound? "NCC(=O)Nc1cncc(-c2nn3c(=O)cc(N4CCNCC4)nc3s2)c1"
4.8

====

tgt: αIIbβ3 receptor (Homo sapiens, UniProt P05106+P08514)
Sequence (P08514 32-887 limits assumed): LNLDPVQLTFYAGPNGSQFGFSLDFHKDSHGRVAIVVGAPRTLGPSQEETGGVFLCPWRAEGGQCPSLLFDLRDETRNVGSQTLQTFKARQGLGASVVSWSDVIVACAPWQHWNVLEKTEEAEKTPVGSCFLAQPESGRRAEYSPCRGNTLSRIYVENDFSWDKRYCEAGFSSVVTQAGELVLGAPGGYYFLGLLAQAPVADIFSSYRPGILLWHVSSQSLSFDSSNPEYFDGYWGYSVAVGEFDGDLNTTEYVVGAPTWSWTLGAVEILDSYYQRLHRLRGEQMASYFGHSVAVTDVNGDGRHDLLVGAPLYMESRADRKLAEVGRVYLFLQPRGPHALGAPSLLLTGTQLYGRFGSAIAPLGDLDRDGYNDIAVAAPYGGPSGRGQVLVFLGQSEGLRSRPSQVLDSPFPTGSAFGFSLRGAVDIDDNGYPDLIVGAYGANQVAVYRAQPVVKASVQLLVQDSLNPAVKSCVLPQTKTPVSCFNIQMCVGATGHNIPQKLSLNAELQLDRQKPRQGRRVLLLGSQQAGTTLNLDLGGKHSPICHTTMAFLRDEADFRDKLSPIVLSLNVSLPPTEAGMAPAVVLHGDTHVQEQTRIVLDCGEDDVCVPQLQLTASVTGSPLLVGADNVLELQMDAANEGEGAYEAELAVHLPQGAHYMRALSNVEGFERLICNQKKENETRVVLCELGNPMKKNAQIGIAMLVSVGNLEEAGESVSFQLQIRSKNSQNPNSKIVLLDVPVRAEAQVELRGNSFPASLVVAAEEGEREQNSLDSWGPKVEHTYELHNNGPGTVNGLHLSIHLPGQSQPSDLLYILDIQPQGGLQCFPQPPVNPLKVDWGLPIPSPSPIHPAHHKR
Sequence (P08514 891-1039 partner limits assumed): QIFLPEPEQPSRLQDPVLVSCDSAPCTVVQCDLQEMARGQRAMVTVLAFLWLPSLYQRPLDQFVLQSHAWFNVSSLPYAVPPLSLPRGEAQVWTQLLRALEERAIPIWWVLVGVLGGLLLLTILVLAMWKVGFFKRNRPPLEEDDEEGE
Sequence (P05106 27-788): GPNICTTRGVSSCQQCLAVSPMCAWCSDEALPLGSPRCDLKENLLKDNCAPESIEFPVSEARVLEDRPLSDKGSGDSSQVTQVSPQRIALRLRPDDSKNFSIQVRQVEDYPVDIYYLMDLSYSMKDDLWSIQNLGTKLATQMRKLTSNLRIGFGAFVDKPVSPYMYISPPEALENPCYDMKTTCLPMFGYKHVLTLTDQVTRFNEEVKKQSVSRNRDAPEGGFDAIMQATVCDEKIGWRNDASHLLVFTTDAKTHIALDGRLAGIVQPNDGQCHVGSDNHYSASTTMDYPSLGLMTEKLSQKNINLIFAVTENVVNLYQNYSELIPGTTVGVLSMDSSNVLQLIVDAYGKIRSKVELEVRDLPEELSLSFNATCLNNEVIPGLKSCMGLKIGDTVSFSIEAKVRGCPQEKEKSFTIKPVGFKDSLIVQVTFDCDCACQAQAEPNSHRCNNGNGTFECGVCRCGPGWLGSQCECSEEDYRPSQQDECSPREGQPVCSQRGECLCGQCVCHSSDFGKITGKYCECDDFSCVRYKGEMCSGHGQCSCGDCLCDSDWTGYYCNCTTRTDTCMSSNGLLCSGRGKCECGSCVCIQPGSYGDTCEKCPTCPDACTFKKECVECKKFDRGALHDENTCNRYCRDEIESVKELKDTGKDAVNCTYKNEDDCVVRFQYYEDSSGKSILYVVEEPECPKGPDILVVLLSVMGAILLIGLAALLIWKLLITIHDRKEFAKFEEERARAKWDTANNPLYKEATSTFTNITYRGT
procedure.text: Platelet aggregation
measured.endpoint: IC50

For the molecule "CCc1nn2c(=O)cc(N3CCNCC3)nc2s1" , what IC50 is on record?
4 to 10 µM

====

What Cmax was measured for each of the following?
procedure.text: Exposure
Type: in vivo
run.parameters: in vivo, ip, 0.03 mg
Give just the number in ng/mL; leave the unit off.

Need Cmax, item "NCC(=O)Nc1cncc(-c2nn3c(=O)cc(N4CCNCC4)nc3s2)c1"
405

I would be grateful if you could share the reported Cmax for "NCC(=O)Nc1cccc(-c2nn3c(=O)cc(N4CCNCC4)nc3s2)c1" .
222
